Numbers sourced from paper PMC13397619.

B1: NLV2 TCR alpha chain (CDR3α only) (parent)
chain: AGPMKTSYDKVI

- Variants of: B1
- Protocol Description: T-Switch: Jurkat TCRβ−/− cells expressing a CDR3 saturation-mutagenesis library, stained with two peptide-HLA-A*02:01 tetramers (original and novel peptide) plus anti-CD3, FACS-sorted into four gates, gDNA sequenced
- Condition Label: with both tetramers (double-negative gate, binds neither): HLA-A*02:01 with … and with …, tetramers 1 µg/mL, 30 min on ice, SP, DP and SW gates expanded about 10 days between rounds ('two to three rounds of selection' in the Methods), gate DN: OPPOSITE: higher = more of the variant in the gate that binds neither peptide = LESS binding (or no expression; inferred). Fold enrichment of the CDR3 variant in one FACS gate of a two-tetram, unresolved parent, parent is a CDR3 fragment, scale: fold enrichment, numbering: sequential-on-construct, sequence starts at 1
Would you mind telling me the reported enrichment of each entry?
Could you respond with only the numeric value?

Recorded result, […] (CDR3 as printed); Y8V derived by comparing it with the table's wild-type CDR3 AGPMKTSYDKVI , enrichment: 1.48

Recorded result, […] (CDR3 as printed); D9P derived by comparing it with the table's wild-type CDR3 AGPMKTSYDKVI , enrichment: 1.22

Recorded result, […] (CDR3 as printed); T6Y derived by comparing it with the table's wild-type CDR3 AGPMKTSYDKVI , enrichment: 1.48

Recorded result, […] (CDR3 as printed); P3T derived by comparing it with the table's wild-type CDR3 AGPMKTSYDKVI , enrichment: 0.962

Recorded result, […] (CDR3 as printed); G2I derived by comparing it with the table's wild-type CDR3 AGPMKTSYDKVI , enrichment: 1.1

Recorded result, […] (CDR3 as printed); D9R derived by comparing it with the table's wild-type CDR3 AGPMKTSYDKVI , enrichment: 1.08

Recorded result, […] (CDR3 as printed); V11Q derived by comparing it with the table's wild-type CDR3 AGPMKTSYDKVI , enrichment: 1.35

Recorded result, […] (CDR3 as printed); V11I derived by comparing it with the table's wild-type CDR3 AGPMKTSYDKVI , enrichment: 0.74

Recorded result, […] (CDR3 as printed); A1D derived by comparing it with the table's wild-type CDR3 AGPMKTSYDKVI , enrichment: 0.746

Recorded result, […] (CDR3 as printed); G2P derived by comparing it with the table's wild-type CDR3 AGPMKTSYDKVI , enrichment: 0.883

Recorded result, […] (CDR3 as printed); S7E derived by comparing it with the table's wild-type CDR3 AGPMKTSYDKVI , enrichment: 1.01

Recorded result, […] (CDR3 as printed); I12C derived by comparing it with the table's wild-type CDR3 AGPMKTSYDKVI , enrichment: 1.05

Recorded result, […] (CDR3 as printed); K10D derived by comparing it with the table's wild-type CDR3 AGPMKTSYDKVI , enrichment: 0.842

Recorded result, […] (CDR3 as printed); M4R derived by comparing it with the table's wild-type CDR3 AGPMKTSYDKVI , enrichment: 0.913

Recorded result, […] (CDR3 as printed); I12G derived by comparing it with the table's wild-type CDR3 AGPMKTSYDKVI , enrichment: 1.06

Recorded result, […] (CDR3 as printed); T6F derived by comparing it with the table's wild-type CDR3 AGPMKTSYDKVI , enrichment: 1.26

Recorded result, […] (CDR3 as printed); G2H derived by comparing it with the table's wild-type CDR3 AGPMKTSYDKVI , enrichment: 0.822

Recorded result, […] (CDR3 as printed); I12E derived by comparing it with the table's wild-type CDR3 AGPMKTSYDKVI , enrichment: 1.18

Recorded result, […] (CDR3 as printed); K10Q derived by comparing it with the table's wild-type CDR3 AGPMKTSYDKVI , enrichment: 0.706

Recorded result, […] (CDR3 as printed); P3N derived by comparing it with the table's wild-type CDR3 AGPMKTSYDKVI , enrichment: 1.07

Recorded result, […] (CDR3 as printed); G2L derived by comparing it with the table's wild-type CDR3 AGPMKTSYDKVI , enrichment: 0.978

Recorded result, […] (CDR3 as printed); K10E derived by comparing it with the table's wild-type CDR3 AGPMKTSYDKVI , enrichment: 1.27

Recorded result, […] (CDR3 as printed); V11C derived by comparing it with the table's wild-type CDR3 AGPMKTSYDKVI , enrichment: 1.08

Recorded result, […] (CDR3 as printed); A1Q derived by comparing it with the table's wild-type CDR3 AGPMKTSYDKVI , enrichment: 0.89

Recorded result, […] (CDR3 as printed); I12F derived by comparing it with the table's wild-type CDR3 AGPMKTSYDKVI , enrichment: 1.16

Recorded result, […] (CDR3 as printed); G2C derived by comparing it with the table's wild-type CDR3 AGPMKTSYDKVI , enrichment: 0.956

Recorded result, […] (CDR3 as printed); P3S derived by comparing it with the table's wild-type CDR3 AGPMKTSYDKVI , enrichment: 1.18

Recorded result, […] (CDR3 as printed); A1G derived by comparing it with the table's wild-type CDR3 AGPMKTSYDKVI , enrichment: 0.876

Recorded result, […] (CDR3 as printed); T6E derived by comparing it with the table's wild-type CDR3 AGPMKTSYDKVI , enrichment: 1.78

Recorded result, […] (CDR3 as printed); M4K derived by comparing it with the table's wild-type CDR3 AGPMKTSYDKVI , enrichment: 0.454

Recorded result, […] (CDR3 as printed); K5Q derived by comparing it with the table's wild-type CDR3 AGPMKTSYDKVI , enrichment: 0.51
